- SYSTEM NAME: JAK1 (Homo sapiens (Human))
- ASSAY METHOD TEXT: JAK Caliper Enzyme Assay at 1 mM ATP, JAK1
- Type: biochemical
pIC50: −log10 of the molar value.
Criterion: pIC50 meeting or surpassing 6. Met: 1. Not met: 0.

Below, 3 compounds whose answers are already recorded.
[[record]]
compound = "N#CC[C@]1(n2ncc(-c3cc(-c4cccc(C(N)=O)n4)cc4ncccc34)n2)C[C@H](C#N)C1 [Example 350]"
answer_label = 1

[[record]]
compound = "Cn1cc(-c2cc3ncccc3c(-c3ccn(C4(CC#N)CN(CC(F)(F)F)C4)n3)n2)cn1"
answer_label = 1

[[record]]
compound = "C[C@]1(C#N)C[C@@](CC#N)(n2ccc(-c3nc(-c4ccnc(N)c4)cc4ncccc34)n2)C1"
answer_label = 1


Is the recorded value of pIC50 equal to or greater than 6 for this compound? N#CC[C@]1(n2ccc(-c3nc(-c4ccnc(CO)c4)cc4ncccc34)n2)C[C@@H](C#N)C1
1

Answer whether pIC50 of CS(=O)(=O)Nc1ccc(-c2cc3ncccc3c(-c3ccn([C@]4(CC#N)C[C@@H](C#N)C4)n3)n2)cc1 is greater than or equal to 6.
1

Would you say CO[C@H]1C[C@](CC#N)(n2ncc(-c3cc(-c4cc[nH]n4)cc4ncccc34)n2)C1 shows pIC50 at minimum 6?
0

Assess whether reported pIC50 for N#CC[C@H]1C[C@](CC#N)(n2cc(-c3nc(-c4cn[nH]c4)cc4ncccc34)cn2)C1 sits at 6 or higher.
1

Can CS(=O)(=O)c1ccc(-c2cc(-c3cnn([C@]4(CC#N)C[C@@H](C#N)C4)n3)c3cccnc3c2)nc1 be said to have pIC50 at or above 6?
0

Check this compound for pIC50 at or above 6: Cn1ccc(-c2cc3ncccc3c(-c3ccn(C4(CC#N)CN(CC(F)(F)F)C4)n3)n2)n1
0

Exam item: decide whether the reported pIC50 for Cn1cc(-c2cc(-c3cnn(C4(CC#N)CC(C#N)C4)n3)c3cccnc3c2)c(CO)n1 (stereo not drawn) is at least 6.
0

Could you verify whether the entry N#CCC1(n2ccc(-c3nc(-c4cnc5cc[nH]c5c4)cc4ncccc34)n2)CN(CC(F)(F)F)C1 shows pIC50 of no less than 6?
0

Exam item: decide whether the reported pIC50 for N#CCC1(n2ccc(-c3nc(-c4ccc(O)c(C(N)=O)n4)cc4ncccc34)n2)CC(C#N)C1 (stereo not drawn) is at least 6.
0

Test whether the compound CS(=O)(=O)N1CC(CC#N)(n2ccc(-c3nc(-c4c[nH]nc4N)cc4ncccc34)n2)C1 records pIC50 of 6 or higher.
1

Determine whether measured pIC50 meets or exceeds 6 for C[C@]1(C#N)C[C@](CC#N)(n2ccc(-c3nc(-c4cn[nH]c4)cc4ncccc34)n2)C1
0

Dear colleague, could you confirm whether Cn1nc(-c2cc3ncccc3c(-c3ccn([C@]4(CC#N)C[C@@H](C#N)C4)n3)n2)cc1N has pIC50 at or above 6?
0

pIC50 >= 6 for Cc1onc(N)c1-c1cc2ncccc2c(-c2ccn(C3(CC#N)CN(S(C)(=O)=O)C3)n2)n1 ?
0

Hello, I need to know if Cc1cc(-c2cc3ncccc3c(-c3ccn([C@]4(CC#N)C[C@@H](C#N)C4)n3)n2)cc(N)n1 has measured pIC50 not below 6. Thanks!
0

In plain terms: is recorded pIC50 at least 6 for N#CCC1(n2ncc(-c3cc(-c4scnc4CO)cc4ncccc34)n2)CC(C#N)C1 (stereo not drawn) ?
0

Given Cn1ncc(-c2cc(-c3cnn([C@]4(CC#N)C[C@@H](C#N)C4)n3)c3cccnc3c2)c1N , state whether its pIC50 is at least 6.
0

# bool: pIC50 of Cn1cc(-c2cc(-c3cnn(C4(CC#N)CN(CC#N)C4)c3)c3cccnc3c2)cn1 >= 6
1

Determine whether measured pIC50 meets or exceeds 6 for N#CC[C@]1(n2ccc(-c3nc(-c4cc(N)[nH]n4)cc4ncccc34)n2)C[C@H](C#N)C1
1

Has Cn1ccc(-c2cc(-c3cnn([C@]4(CC#N)C[C@@H](C#N)C4)n3)c3cccnc3c2)n1 a recorded pIC50 greater than or equal to 6?
0

* * *

- SYSTEM NAME: TYK2 (Homo sapiens (Human))
- Sequence (P29597 897-1176): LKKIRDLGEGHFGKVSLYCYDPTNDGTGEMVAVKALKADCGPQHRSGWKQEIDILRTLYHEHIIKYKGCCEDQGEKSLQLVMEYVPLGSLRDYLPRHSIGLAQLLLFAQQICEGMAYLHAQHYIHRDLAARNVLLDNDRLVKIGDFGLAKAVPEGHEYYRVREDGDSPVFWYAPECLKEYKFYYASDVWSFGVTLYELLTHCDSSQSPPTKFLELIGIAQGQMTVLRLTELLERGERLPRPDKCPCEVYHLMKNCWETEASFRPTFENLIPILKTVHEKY
- ASSAY METHOD TEXT: JAK Caliper Enzyme Assay at 1 mM ATP, TYK2
- Type: biochemical
The label is True for IC50 below 40 nM and False for IC50 equal to or exceeding 40 nM.

[[record]]
compound = "CS(=O)(=O)N1CC(CC#N)(n2ccc(-c3nc(-c4cc(O)cc(F)c4)cc4ncccc34)n2)C1 [Example 261]"
answer_label = "False"

[[record]]
compound = "CS(=O)(=O)N1CC(CC#N)(n2cc(-c3cc(-c4cc[nH]n4)cc4ncccc34)cn2)C1 [Example 288]"
answer_label = "False"

[[record]]
compound = "CO[C@H]1C[C@@](CC#N)(n2ccc(-c3nc(-c4cnn(CCO)c4)cc4ncccc34)n2)C1 [Example 128]"
answer_label = "False"


In the following, a different compound is considered.
Find out if reported IC50 for N#CCC1(n2ccc(-c3nc(-c4ccc(N)nc4)cc4ncccc34)n2)CN(CC(F)(F)F)C1 [Example 192] is less than 40 nM
False

* * *

- SYSTEM NAME: TYK2 (Homo sapiens (Human))
- ASSAY METHOD TEXT: JAK Caliper Enzyme Assay at 1 mM ATP, TYK2
- Format: biochemical
Form field: IC50 (one value per entry).
The figure you give is taken to be in nM; do not add the unit.

[[record]]
compound = "CS(=O)(=O)N1CC(CC#N)(n2ccc(-c3nc(-c4cnn([C@@H]5CCOC5)c4)cc4ncccc34)n2)C1"
system_name = "TYK2 (Homo sapiens (Human))"
meas_value = 27

[[record]]
compound = "N#CCC1(n2ccc(-c3nc(-c4ccc(O)c(C(N)=O)n4)cc4ncccc34)n2)CC(C#N)C1 (stereo not shown)"
system_name = "TYK2 (Homo sapiens (Human))"
meas_value = 112

[[record]]
compound = "Cc1cn([C@]2(CC#N)C[C@H](C#N)C2)nc1-c1nc(-c2cc(N)n(C)n2)cc2ncccc12"
system_name = "TYK2 (Homo sapiens (Human))"
meas_value = 675


Turning now to a further record.
# input compound: CNc1cc(-c2cc3ncccc3c(-c3ccn([C@]4(CC#N)C[C@@H](C#N)C4)n3)n2)nn1C ; wanted: its IC50
661

* * *

- SYSTEM NAME: JAK2 (Homo sapiens (Human), UniProt O60674)
- Sequence (O60674 849-1124): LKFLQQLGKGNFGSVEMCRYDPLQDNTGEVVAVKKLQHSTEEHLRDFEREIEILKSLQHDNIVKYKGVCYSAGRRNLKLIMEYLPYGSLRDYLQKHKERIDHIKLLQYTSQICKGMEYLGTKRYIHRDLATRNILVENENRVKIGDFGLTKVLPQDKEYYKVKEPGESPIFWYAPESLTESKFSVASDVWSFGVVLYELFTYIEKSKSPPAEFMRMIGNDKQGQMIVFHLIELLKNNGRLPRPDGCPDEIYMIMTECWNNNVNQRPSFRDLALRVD
- ASSAY METHOD TEXT: JAK Caliper Enzyme Assay at 1 mM ATP, JAK2
- Type: biochemical
VALUE KIND: pIC50
Please note pIC50 is a logarithmic value: minus log10 of concentration in mol/L. Answer with that number alone.

These recorded examples may help you get a feel for the data.
[[record]]
molecule = "CO[C@H]1C[C@](CC#N)(n2ccc(-c3nc(-c4cc(CO)n[nH]4)cc4ncccc34)n2)C1"
meas_value = 6.06

[[record]]
molecule = "CS(=O)(=O)N1CC(CC#N)(n2ccc(-c3nc(-c4cnc(N)nc4)cc4ncccc34)n2)C1"
meas_value = 5.05

[[record]]
molecule = "COc1cc(-c2cc3ncccc3c(-c3ccn(C4(CC#N)CN(S(C)(=O)=O)C4)n3)n2)ccn1"
meas_value = 6.14

[[record]]
molecule = "N#CCC1(n2ccc(-c3nc(-c4cnn(C5CCNCC5)c4)cc4ncccc34)n2)CN(CC(F)(F)F)C1"
meas_value = 7.27

[[record]]
molecule = "N#CCC1(n2ccc(-c3nc(-c4ccn[nH]4)cc4ncccc34)n2)CC(CO)C1 (stereo not shown) [Example 28]"
meas_value = 5.75


Reported pIC50 for Cc1cc(-c2nc(-c3cn[nH]c3)cc3ncccc23)nn1[C@]1(CC#N)C[C@H](C#N)C1 : what is it?
7.47

So what does the record say about pIC50 for N#CCC1(n2ccc(-c3nc(-c4ccn(C5COC5)n4)cc4ncccc34)n2)CN(CC(F)(F)F)C1 ?
5.63

* * *

- SYSTEM NAME: JAK1 (Homo sapiens (Human), UniProt P23458)
- Sequence (P23458 875-1153): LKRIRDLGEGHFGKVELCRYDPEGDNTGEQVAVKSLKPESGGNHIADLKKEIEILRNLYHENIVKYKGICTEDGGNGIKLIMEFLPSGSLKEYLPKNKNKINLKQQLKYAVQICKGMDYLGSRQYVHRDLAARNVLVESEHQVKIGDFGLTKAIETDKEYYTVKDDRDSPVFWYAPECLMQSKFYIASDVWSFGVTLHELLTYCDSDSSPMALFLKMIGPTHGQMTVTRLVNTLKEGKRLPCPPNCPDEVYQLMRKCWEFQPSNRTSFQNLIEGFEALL
- ASSAY METHOD TEXT: JAK Caliper Enzyme Assay at 1 mM ATP, JAK1
- Assay type: biochemical
IC50 vs 900 nM: less than gives class 1; not less than gives class 0.

These solved cases illustrate the format of a correct answer.
[[record]]
compound = "N#CC[C@]1(n2ncc(-c3cc(-c4cccc(N)n4)cc4ncccc34)n2)C[C@H](C#N)C1"
system_name = "JAK1 (Homo sapiens (Human), UniProt P23458)"
answer_label = "class 0"

[[record]]
compound = "N#CC[C@]1(n2ccc(-c3nc(-c4ccc(S(N)(=O)=O)nc4)cc4ncccc34)n2)C[C@H](C#N)C1 [Example 210]"
system_name = "JAK1 (Homo sapiens (Human), UniProt P23458)"
answer_label = "class 0"

[[record]]
compound = "N#CCC1(n2ccc(-c3nc(-c4cncnc4)cc4ncccc34)n2)CN(CC(F)(F)F)C1"
system_name = "JAK1 (Homo sapiens (Human), UniProt P23458)"
answer_label = "class 0"

[[record]]
compound = "N#CC[C@]1(n2ccc(-c3nc(-c4cccc(O)n4)cc4ncccc34)n2)C[C@@H](C#N)C1"
system_name = "JAK1 (Homo sapiens (Human), UniProt P23458)"
answer_label = "class 1"

[[record]]
compound = "Cn1nccc1-c1cc2ncccc2c(-c2ccn(C3(CC#N)CN(CC(F)(F)F)C3)n2)n1"
system_name = "JAK1 (Homo sapiens (Human), UniProt P23458)"
answer_label = "class 0"


Strictly below 900 nM in IC50? N#CC[C@]1(n2ccc(-c3nc(-c4ccc(N)nc4)cc4ncccc34)n2)C[C@@H](C#N)C1
class 1

Given Cc1cc(-c2cc3ncccc3c(-c3ccn(C4(CC#N)CN(S(C)(=O)=O)C4)n3)n2)cnc1N , is recorded IC50 strictly lower than 900 nM?
class 0

API: query returns whether the compound falls strictly under 900 nM in IC50. Query: N#CC[C@]1(n2ccc(-c3nc(-c4cnn(CCO)c4)cc4ncccc34)n2)C[C@H](C#N)C1
class 1
